Listing of recorded phosphorylation enrichment by entry.
Target: EPHB2 (UniProt P29323)
Sequence (P29323 whole entry, looked up): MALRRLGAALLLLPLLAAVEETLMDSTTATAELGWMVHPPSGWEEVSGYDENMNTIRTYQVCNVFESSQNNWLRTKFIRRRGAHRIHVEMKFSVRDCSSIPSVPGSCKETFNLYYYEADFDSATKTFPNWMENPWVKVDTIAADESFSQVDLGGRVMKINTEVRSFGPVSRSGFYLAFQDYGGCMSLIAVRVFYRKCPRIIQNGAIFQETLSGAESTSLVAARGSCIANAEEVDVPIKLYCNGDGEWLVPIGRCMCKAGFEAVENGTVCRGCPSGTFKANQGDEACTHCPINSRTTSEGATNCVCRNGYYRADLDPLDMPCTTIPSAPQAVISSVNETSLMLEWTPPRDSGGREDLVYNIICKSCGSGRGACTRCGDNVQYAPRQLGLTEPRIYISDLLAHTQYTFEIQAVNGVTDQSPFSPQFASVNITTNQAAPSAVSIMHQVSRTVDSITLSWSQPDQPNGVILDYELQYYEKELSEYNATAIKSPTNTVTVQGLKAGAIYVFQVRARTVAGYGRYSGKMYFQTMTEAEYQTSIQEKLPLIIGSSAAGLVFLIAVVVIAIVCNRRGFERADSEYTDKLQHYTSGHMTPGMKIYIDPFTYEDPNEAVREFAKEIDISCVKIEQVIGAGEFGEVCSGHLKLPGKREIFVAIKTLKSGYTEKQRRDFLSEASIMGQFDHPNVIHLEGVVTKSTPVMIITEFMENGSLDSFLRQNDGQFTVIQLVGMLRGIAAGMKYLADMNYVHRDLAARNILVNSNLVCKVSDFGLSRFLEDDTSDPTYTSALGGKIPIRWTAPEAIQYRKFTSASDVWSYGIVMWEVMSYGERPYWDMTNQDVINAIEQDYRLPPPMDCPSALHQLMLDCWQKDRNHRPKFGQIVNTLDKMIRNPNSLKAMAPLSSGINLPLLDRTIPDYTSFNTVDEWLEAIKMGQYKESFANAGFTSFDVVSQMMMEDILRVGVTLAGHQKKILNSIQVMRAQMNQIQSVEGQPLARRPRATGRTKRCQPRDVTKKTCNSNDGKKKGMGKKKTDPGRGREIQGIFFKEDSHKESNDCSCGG
Experiment: phosphorylation enrichment, bacterial display (enrichment ratio); higher = better substrate or ligand; peptides without Tyr show the background;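 also: 11-residue human phosphosite peptides and single-mutation variants displayed on the E. coli surface, counted by deep sequencing, each peptide's frequency after selection divided by its frequency in the unselected input library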;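 also: frequency after pTyr selection over input frequency; kinase dosed for 20-30% of maximal phosphorylation in three min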
assay-readout: phosphorylation enrichment

| chain-sequence | numeric-result |
| --- | --- |
| MFVKSYTIHFS [F5_Y2153_YF] | 0.579 |
| FCRHNYGVGES [HLA-DRB1_Y112_V115G_YF] | 0.527 |
| CCNHPYRINGA [CHD7_Y1256_L1257R] | 0.46 |
| FTHSDYQFSQR [PKP2_Y166_YF] | 0.538 |
| DPHECYAKVFN [ALB_Y394_D399N] | 0.586 |
| NLMPAYHKCIQ [CYP21A2_Y190_Y191H] | 0.586 |
| SVVLPYEPPEV [TP53_Y220_V218L] | 0.797 |

###

Molecular target: EPHB1 (UniProt P54762)
Sequence (P54762 whole entry, looked up): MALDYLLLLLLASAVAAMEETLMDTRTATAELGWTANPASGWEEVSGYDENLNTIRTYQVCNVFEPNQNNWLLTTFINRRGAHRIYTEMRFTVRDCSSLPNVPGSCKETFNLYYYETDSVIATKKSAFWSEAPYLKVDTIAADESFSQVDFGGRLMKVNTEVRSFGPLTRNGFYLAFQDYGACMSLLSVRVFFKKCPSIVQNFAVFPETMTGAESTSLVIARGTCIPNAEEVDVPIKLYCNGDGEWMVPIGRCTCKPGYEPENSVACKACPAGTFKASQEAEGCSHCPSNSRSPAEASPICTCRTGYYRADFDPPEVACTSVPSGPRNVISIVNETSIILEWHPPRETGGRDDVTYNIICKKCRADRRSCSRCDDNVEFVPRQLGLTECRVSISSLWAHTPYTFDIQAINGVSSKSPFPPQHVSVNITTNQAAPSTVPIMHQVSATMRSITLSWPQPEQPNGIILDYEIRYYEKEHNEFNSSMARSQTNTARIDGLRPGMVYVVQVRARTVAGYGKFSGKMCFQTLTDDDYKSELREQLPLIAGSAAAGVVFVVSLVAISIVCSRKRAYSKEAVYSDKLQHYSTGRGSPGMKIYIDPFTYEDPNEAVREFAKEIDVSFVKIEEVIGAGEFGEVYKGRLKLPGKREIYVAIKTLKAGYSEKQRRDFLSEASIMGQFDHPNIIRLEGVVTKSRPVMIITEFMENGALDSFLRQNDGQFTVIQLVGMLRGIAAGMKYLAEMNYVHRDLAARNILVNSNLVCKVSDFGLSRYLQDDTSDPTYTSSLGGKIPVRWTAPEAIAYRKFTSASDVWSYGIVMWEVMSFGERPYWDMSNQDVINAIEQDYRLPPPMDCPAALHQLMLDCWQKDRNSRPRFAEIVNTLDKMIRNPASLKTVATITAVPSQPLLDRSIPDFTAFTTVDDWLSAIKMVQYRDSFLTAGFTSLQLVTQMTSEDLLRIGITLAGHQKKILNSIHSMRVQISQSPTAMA
Test: phosphorylation enrichment, bacterial display (enrichment ratio); higher = better substrate or ligand; peptides without Tyr show the background

| chain-sequence | study-target | phosphorylation enrichment |
| --- | --- | --- |
| SHGKRYRVPSD [HHIPL2_Y395] | EPHB1 (UniProt P54762) | 0.254 |
| ETCLAYREKRI [TEKT1_Y118] | EPHB1 (UniProt P54762) | 0.466 |
| PLYGEYFTLQI [TP53_Y327_D324Y] | EPHB1 (UniProt P54762) | 15.8 |
| QLRPGYFPIPV [BAG3_Y93_I94F] | EPHB1 (UniProt P54762) | 0.448 |
| HKANEYYPVVL [ADAMTS18_Y764] | EPHB1 (UniProt P54762) | 1.47 |
| LENSTYQYIHV [CRB1_Y760_R764H] | EPHB1 (UniProt P54762) | 11.2 |
| IFGVSYGEFRF [CFTR_Y512_D513G_YF] | EPHB1 (UniProt P54762) | 0.576 |
| ALEHKYWALGQ [MAP1A_Y1555_Q1553H] | EPHB1 (UniProt P54762) | 0.546 |
| SHNELYYEAAE [VANGL1_Y344_E347A] | EPHB1 (UniProt P54762) | 1 |
| ETKKQYDSFTF [TMED3_Y85_YF] | EPHB1 (UniProt P54762) | 0.422 |
| FLGEEYVKAVG [TF_Y674_YF] | EPHB1 (UniProt P54762) | 0.489 |
| LNARHYGGLTG [PGAM2_Y92_E89A] | EPHB1 (UniProt P54762) | 0.376 |
| NQDRTYYESVR [SPEN_Y632] | EPHB1 (UniProt P54762) | 0.569 |
| PPSLSYLSFEG [EXOSC3_Y143_A139P] | EPHB1 (UniProt P54762) | 0.556 |
| CEQELYSQLVY [WAS_Y102_W97C] | EPHB1 (UniProt P54762) | 4.86 |
| GLRSYYETSKM [MAGED2_Y449] | EPHB1 (UniProt P54762) | 0.475 |
| SIKDKYLTALF [KCNH2_Y611_V612L_YF] | EPHB1 (UniProt P54762) | 0.435 |
| PPNSPYIGSSP [KCNT1_Y740] | EPHB1 (UniProt P54762) | 0.493 |
| PPSELYFVKVD [TERT_Y707_P704S] | EPHB1 (UniProt P54762) | 0.699 |
| VDTFWYKLLKR [EPM2A_Y86_F88L] | EPHB1 (UniProt P54762) | 0.493 |
| FGGRDYSLDEF [MYOF_Y1705_YF] | EPHB1 (UniProt P54762) | 0.597 |
| CTTIHYNYVCN [TP53_Y234_M237V] | EPHB1 (UniProt P54762) | 0.616 |
| RHPREYQDLLN [DES_Y388_L385P] | EPHB1 (UniProt P54762) | 0.537 |
| SFPREYGSQEG [RBM10_Y48_YF] | EPHB1 (UniProt P54762) | 0.392 |
| MGSYNYLGFPR [SPTLC2_Y178_A182P] | EPHB1 (UniProt P54762) | 5.53 |
| EVEFEYPFRLH [SYP_Y73] | EPHB1 (UniProt P54762) | 0.564 |
| KPIETYFSKNY [PLP1_Y50_L46P] | EPHB1 (UniProt P54762) | 0.392 |
| CTTIHYNYMFN [TP53_Y234_C238F] | EPHB1 (UniProt P54762) | 0.672 |
| HFVDEYDQTIE [KRAS_Y32_P34Q] | EPHB1 (UniProt P54762) | 1.1 |
